Experiment: Hepatic blood flow in human
Type: ADME
RESULT_TYPE: percent of hepatic blood flow (%)

> print(dat)
                                        mol                    result.type  result.modifier  quantitative.readout
1                          OB1NN=Cc2ccccc21  percent of hepatic blood flow                <                  36.1
2                OB1ON=C(c2ccccc2)c2ccccc21  percent of hepatic blood flow                <                  36.1
3                          OB1ON=Cc2ccccc21  percent of hepatic blood flow                =                  81.2
4  C[C@]12CC[C@H]3[C@@H](CCC4=CC(=O)CC[C@@]43C)[C@@H]1CC[C@@H]2O  percent of hepatic blood flow                =                  89.1
5                OB1NN=C(c2ccccc2)c2ccccc21  percent of hepatic blood flow                =                  65.2
